This collection of values is drawn from patent US20230150924A1.

Item-by-item account of fold induction at 1 µM
System: KAI1 promoter
method: KAI1 promoter luciferase reporter assay in transfected Caco2 cells
Format: cell-based, human
condition_notes: Homo sapiens, Caco-2, 16 h, 1 μM compound, 16 hours, transfected Caco2 cells, luciferase activity relative to DMSO control (=1); read-out: Relative KAI promoter activity

Item `O=C(COc1ccccc1C(=O)NCC(=O)c1ccccc1)Nc1cccc(O)c1` has what recorded fold induction at 1 µM? 1.1

Item `CN(C)c1ccc(C(=O)CNC(=O)CC(C)(C)C)cc1` has what recorded fold induction at 1 µM? 2.53

Item `CN(C)c1ccc(C(=O)CNC(=O)C2CC2)cc1` has what recorded fold induction at 1 µM? 1.62

Item `CN(C)c1ccc(C(=O)CNC(=O)c2ccc(OC(F)(F)F)cc2)cc1` has what recorded fold induction at 1 µM? 1.35

Others:
Item COc1cccc(C(=O)CNC(=O)c2cccc(CN3CC(C)OC(C)C3)c2)c1 (centres unmarked) has what recorded fold induction at 1 µM? 1.52

###

Tested on: KAI1 promoter
method: KAI1 promoter luciferase reporter assay in transfected Caco2 cells
Type: cell-based, human
condition_notes: Homo sapiens, Caco-2, 16 h, 1 μM compound, 16 hours, transfected Caco2 cells, luciferase activity relative to DMSO control (=1); read-out: Relative KAI promoter activity
Method: Experiments were conducted to evaluate the metastasis-related promoter activity-increasing effects of the compounds according to the present invention. Specifically, the KAI1 promoter reporter vector was used. In this case, the pRL-TK vector, a vector expressing renilla luciferase, was used as an internal control indicating the transfection efficiency in each transfected well. […]
Item-by-item account of fold induction at 1 µM

Item O=C(CNC(=O)c1ccc(CN(C2CCCCC2)C2CCCCC2)cc1)c1ccccc1 [Example 270] has what recorded fold induction at 1 µM? 1.47

Item O=C(CNS(=O)(=O)c1ccc(F)cc1)c1ccc(Cl)cc1 [Example 67] has what recorded fold induction at 1 µM? 0.87

Item Cc1cccc(C(=O)NCC(=O)c2ccc(N3CCOCC3)cc2)c1 [Example 141] has what recorded fold induction at 1 µM? 1.06

Item O=C(CNC(=O)c1ccccc1OC1CCN(C(=O)c2ccccc2C(F)(F)F)CC1)c1ccccc1 [Example 191] has what recorded fold induction at 1 µM? 0.84

Turning to the following compound.
Item O=C(CNC(=O)c1cccc(CN2CCOCC2)c1)c1ccccc1 [Example 252] has what recorded fold induction at 1 µM? 1.56

###

Test system: KAI1 promoter
method: KAI1 promoter luciferase reporter assay in transfected Caco2 cells
Format: cell-based, human
condition_notes: Homo sapiens, Caco-2, 16 h, 1 μM compound, 16 hours, transfected Caco2 cells, luciferase activity relative to DMSO control (=1); read-out: Relative KAI promoter activity
Item-by-item account of fold induction at 1 µM
The answer should be written as a number, with no unit following it.

The cases that follow already have their fold induction at 1 µM on record.
Item `CCC(=O)NCC(=O)c1ccc(Cl)cc1` has what recorded fold induction at 1 µM? 0.7

Item `O=C(CNC(=O)c1ccccc1OC(F)(F)F)c1ccc(Cl)cc1` has what recorded fold induction at 1 µM? 0.94

Others:
Item `O=C(CNC(=O)c1ccccc1OC1CCN(S(=O)(=O)c2ccc(Cl)cc2)CC1)c1ccccc1` has what recorded fold induction at 1 µM? 1.06

Item `CCCCC(=O)NCC(=O)c1ccc(N2CCOCC2)cc1` has what recorded fold induction at 1 µM? 1.1

###

System: KAI1 promoter
method: KAI1 promoter luciferase reporter assay in transfected Caco2 cells
Format: cell-based, human
condition_notes: Homo sapiens, Caco-2, 16 h, 1 μM compound, 16 hours, transfected Caco2 cells, luciferase activity relative to DMSO control (=1); read-out: Relative KAI promoter activity
Item-by-item account of fold induction at 1 µM
The answer should be written as a number, with no unit following it.

Item O=C(CNC(=O)c1cccc(C(F)(F)F)c1)c1ccc(Cl)cc1 [Example 74] has what recorded fold induction at 1 µM? 0.78

Item CN(Cc1ccccc1C(=O)NCC(=O)c1ccccc1)C1CCCCC1 [Example 298] has what recorded fold induction at 1 µM? 1.34

Item CN(C)c1ccc(C(=O)CNC(=O)c2cccc(Cl)c2Cl)cc1 [Example 118] has what recorded fold induction at 1 µM? 1.74

Item CN(C)c1ccc(C(=O)CNC(=O)c2ccccc2C(F)(F)F)cc1 [Example 112] has what recorded fold induction at 1 µM? 2.82

Turning to the following molecule.
Item C=CCN(CC=C)Cc1ccc(C(=O)NCC(=O)c2ccccc2)cc1 [Example 265] has what recorded fold induction at 1 µM? 1.91

###

System: KAI1 promoter
method: KAI1 promoter luciferase reporter assay in transfected Caco2 cells
Format: cell-based, human
condition_notes: Homo sapiens, Caco-2, 16 h, 1 μM compound, 16 hours, transfected Caco2 cells, luciferase activity relative to DMSO control (=1); read-out: Relative KAI promoter activity
API: label(entry) gives satisfied if the entry's fold induction at 1 µM is strictly smaller than 1; on equality or larger values it gives not satisfied.

Worked examples, 4 compounds total:
Say whether its fold induction at 1 µM is strictly beneath 1. Entry: O=C(CNS(=O)(=O)Cc1ccccc1)c1ccc(Cl)cc1 [Example 70] satisfied

Say whether its fold induction at 1 µM is strictly beneath 1. Entry: CC(C)(C)OC(=O)N1CCN(Cc2ccc(C(=O)NCC(=O)c3ccccc3)cc2)CC1 [Example 269] not satisfied

Say whether its fold induction at 1 µM is strictly beneath 1. Entry: C/C=C/C(=O)NCC(=O)c1ccc(Cl)cc1 [Example 48] satisfied

Say whether its fold induction at 1 µM is strictly beneath 1. Entry: O=C(CNS(=O)(=O)c1ccccc1)c1ccc(N2CCOCC2)cc1 [Example 148] not satisfied

Now take the following compound into account.
Say whether its fold induction at 1 µM is strictly beneath 1. Entry: O=C(CNC(=O)c1cccc(CN2CCC(N3CCCCC3)CC2)c1)c1ccccc1 [Example 237] not satisfied

###

Item-by-item account of fold induction at 1 µM
Tested on: KAI1 promoter
method: KAI1 promoter luciferase reporter assay in transfected Caco2 cells
Assay type: cell-based, human
condition_notes: Homo sapiens, Caco-2, 16 h, 1 μM compound, 16 hours, transfected Caco2 cells, luciferase activity relative to DMSO control (=1); read-out: Relative KAI promoter activity
Protocol: Experiments were conducted to evaluate the metastasis-related promoter activity-increasing effects of the compounds according to the present invention. Specifically, the KAI1 promoter reporter vector was used. In this case, the pRL-TK vector, a vector expressing renilla luciferase, was used as an internal control indicating the transfection efficiency in each transfected well. […]
The answer should be written as a number, with no unit following it.

Item `O=C(CNC(=O)c1ccc(CN2CCN(c3ccccc3F)CC2)cc1)c1ccccc1` has what recorded fold induction at 1 µM? 1.36

Item `CCCCN(CC)Cc1cccc(C(=O)NCC(=O)c2cccc(OC)c2)c1` has what recorded fold induction at 1 µM? 1.23

Item `C=CC(=O)N1CCC(Oc2ccccc2C(=O)NCC(=O)c2ccccc2)CC1` has what recorded fold induction at 1 µM? 1.05

Item `O=C(CNC(=O)c1ccccc1OC1CCN(C(=O)C2CCC2)CC1)c1ccccc1` has what recorded fold induction at 1 µM? 1.04

Item `O=C(CNC(=O)C1CC1)c1ccc(N2CCOCC2)cc1` has what recorded fold induction at 1 µM? 1.16

###

Tested on: KAI1 promoter
method: KAI1 promoter luciferase reporter assay in transfected Caco2 cells
Type: cell-based, human
condition_notes: Homo sapiens, Caco-2, 16 h, 1 μM compound, 16 hours, transfected Caco2 cells, luciferase activity relative to DMSO control (=1); read-out: Relative KAI promoter activity
Method: Experiments were conducted to evaluate the metastasis-related promoter activity-increasing effects of the compounds according to the present invention. Specifically, the KAI1 promoter reporter vector was used. In this case, the pRL-TK vector, a vector expressing renilla luciferase, was used as an internal control indicating the transfection efficiency in each transfected well. […]
Item-by-item account of fold induction at 1 µM
The answer should be written as a number, with no unit following it.

Item CCCCC(=O)NCC(=O)c1ccccc1 [Example 20, N-(2-oxo-2-phenylethyl)pentanamide] has what recorded fold induction at 1 µM? 0.99

Others:
Item `O=C(CNC(=O)c1ccc(F)cc1F)c1ccccc1` has what recorded fold induction at 1 µM? 1.56

Item CC(C)(C)C(=O)NCC(=O)c1ccccc1 [Example 24, N-(2-oxo-2-phenylethyl)pivalamide] has what recorded fold induction at 1 µM? 0.84

Item `CN(Cc1ccccc1)Cc1cccc(C(=O)NCC(=O)c2ccccc2)c1` has what recorded fold induction at 1 µM? 1.17

Item `CN(C)c1ccc(C(=O)CNC(=O)c2ccc(F)cc2Cl)cc1` has what recorded fold induction at 1 µM? 2.04

###

Tested on: KAI1 promoter
method: KAI1 promoter luciferase reporter assay in transfected Caco2 cells
Type: cell-based, human
condition_notes: Homo sapiens, Caco-2, 16 h, 1 μM compound, 16 hours, transfected Caco2 cells, luciferase activity relative to DMSO control (=1); read-out: Relative KAI promoter activity
Quick rule: fold induction at 1 µM of at least 1 means y, below that means n.

Worked examples, 3 compounds total:
Textbook exercise: given the entry `CN(C)c1ccc(C(=O)CNC(=O)c2cccc(C(F)(F)F)c2)cc1` , state whether its fold induction at 1 µM is greater than or equal to 1. y

Textbook exercise: given the entry `O=C(CNC(=O)c1ccc(CN2CCN(c3ncccn3)CC2)cc1)c1ccccc1` , state whether its fold induction at 1 µM is greater than or equal to 1. y

Textbook exercise: given the entry `COc1cccc(C(=O)CNC(=O)c2cccc(CN3CCN(CCO)CC3)c2)c1` , state whether its fold induction at 1 µM is greater than or equal to 1. y

Now take the following compound into account.
Textbook exercise: given the entry `C=CC(=O)NCC(=O)c1ccc(Cl)cc1` , state whether its fold induction at 1 µM is greater than or equal to 1. n
